test system: RXRa DBDmut IVT, anti-RXR (DBD mutation: RXRa K156A/R161A, NR concentration 90 nM); test: PBM binding z-score (relative to random genomic background probes); higher = stronger binding; sequences stand for … in GC…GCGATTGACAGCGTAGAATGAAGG
Each item that follows carries a reported PBM binding z-score.
Please state the value as a number alone, without comment.

Completed entries (count: 4):
# chain, measured-on, PBM binding z-score
records = [
    ("TCCAGTAGGTTACGGGGGCATTCAGGGATGAAGA", "RXRa DBDmut IVT, anti-RXR (DBD mutation: RXRa K156A/R161A, NR concentration 90 nM)", 2.49),
    ("CCTACTGGGCCATTGAGAGGTCATTGATCATATG", "RXRa DBDmut IVT, anti-RXR (DBD mutation: RXRa K156A/R161A, NR concentration 90 nM)", 0.642),
    ("ATCGAATGGTCGTGAGGTGAGTATACAGAAAGGC", "RXRa DBDmut IVT, anti-RXR (DBD mutation: RXRa K156A/R161A, NR concentration 90 nM)", -0.556),
    ("CAATCTAGGTCAAAGGTCAAAGTCGAGCCAACCA", "RXRa DBDmut IVT, anti-RXR (DBD mutation: RXRa K156A/R161A, NR concentration 90 nM)", 2.92),
]

## Task Reported PBM binding z-score, sequence TCTAGTTGGTTACGGAGGTCACACACGACGGGTA : ____
## Result 1.12

## Task Please report the recorded PBM binding z-score for TCTCGGAGGACACGAAAGGTCAGTGCTCGACATC .
## Result 1.23

## Task Fill in: PBM binding z-score of CCGAGTAGTTTACGAGGGGGCATTCAGTGCGAAT is ___
## Result 2.08

## Task Returns the measured PBM binding z-score for the input sequence. Input: TCGAGTAGGTTACAGGGGCATTCAGGGATGAAGA
## Result 0.69

## Task What does the data say about its PBM binding z-score? Entry: TCGAGTAGGTTACGGGCGCATTCAGGGATGAAGA
## Result -0.064

## Task Requested read-out: PBM binding z-score. Entry: CCGAGTAGGTTACGAAGGGGCATTCAGTGCGAAT
## Result 0.309

## Task For CCAACTAGGTCATTGACAGGACAGTGAATAGTAA , what is its reported PBM binding z-score?
## Result 2.47

## Task Endpoint output: PBM binding z-score of CAAACTAGGTCACAGAGGTCAAACTCCGTGCGTA . Value?
## Result 3.78

---

system: LXRb:RXRa (NR concentration 270 nM, RXRa partner concentration 90 nM); experiment: PBM binding z-score (relative to random genomic background probes); higher = stronger binding; sequences stand for … in GC…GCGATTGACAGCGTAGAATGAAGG
Measured PBM binding z-score, listed per entry for reference.
Please reply with the value in numeric form only.

// below: answered sequences
# chain, PBM binding z-score
data = [
    ("CCTACTGGGCCAAAGGTCTTTGATTCCAATGCTC", 0.232),
    ("TAGCCTAGGTCATTCAGGGGCCAGAATAGAAAGC", 3.21),
]

## Task // lookup PBM binding z-score for ACTAGTAGGTCAGCTGAGGTCACACACAATTCGG
## Result 5.14

## Task Would you kindly share the measured PBM binding z-score for CCTACTGGGCCAACAAGGTCATTGATGCCGATAA ?
## Result 2.45

## Task Consider the sequence shown here: CAAAGTAGGTCACGAAAGGTCAAAGTCGAATGAC What is its recorded PBM binding z-score?
## Result 7.39

## Task Please report the recorded PBM binding z-score for AATACAGGGACATCGTAGGCCAGAGTACGCACAG .
## Result -0.465

---

test system: PPARg homodimer (NR concentration 180 nM); experiment: PBM binding z-score (relative to random genomic background probes); higher = stronger binding; sequences stand for … in GC…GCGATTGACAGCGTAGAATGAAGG
Class t: PBM binding z-score at least 2. Class f: PBM binding z-score below 2.

These recorded examples may help you get a feel for the data.
# chain, class
data = [
    ("CCTAGCAGGCGAGGGTCACTCAAGCATTTCGCTT", "f"),
    ("CGTCCAAGGTCATAGGAGGTCACTGAAGACAGAT", "t"),
    ("CGTCCAAGGTCATAGGAGGTCATTGAAGACAGAT", "t"),
    ("CTCGAAAGGTCGTGCTCAGGTGAGTACACCAAAC", "t"),
    ("TAGCCTAGGTGATTGGGCCAGTATAGTACGCATC", "f"),
    ("ACTTACGGGTCAACGACGTTATAGCACGCGTATA", "f"),
    ("CCTTACGGGCCACGAGGTTATAGCACGACGAGCG", "f"),
    ("TAGCCTAGGTCATTTGGCCAGTATAGTACGCATC", "f"),
    ("ACTTGGAGGACAAAGGTCAGAGCTACGCCAGTGA", "t"),
    ("CAATCTAGGTCACAGAGGTCAAAGTCCGTGCGTA", "t"),
]

## Task Has TCTCGGAGGACACGAAAAGTCAGAGCTCGACATC a recorded PBM binding z-score greater than or equal to 2?
## Result f

## Task Is PBM binding z-score at least 2? Consider ACTTACGGGTCAACGGGGTTATAGCACGCGTATA
## Result t

---

Listed sequences paired with reported PBM binding z-score
tested on: PXR homodimer (NR concentration 270 nM); assay: PBM binding z-score (relative to random genomic background probes); higher = stronger binding; sequences stand for … in GC…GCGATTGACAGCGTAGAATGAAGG

Answered examples (4):
# chain, measurement-type, result
records = [
    ("CGTCCAAGGTCAACGCTAGGTCAGTGAAAGCATT", "PBM binding z-score", 1.66),
    ("CGAACTAGGTCACCAGGACAGTGAAGAGGTTGGA", "PBM binding z-score", 0.0754),
    ("CAAACTAGGTCACCGGGAGGTCAAAGTCCGCATG", "PBM binding z-score", 4.09),
    ("TCGAGTAGGTTACCGGGGCATTCAGGGATGAAGA", "PBM binding z-score", -0.524),
]

## Task State its PBM binding z-score on PXR homodimer (NR concentration 270 nM): CCTCGGAGGACAGAAGGTCAGATCTGTCCGCTTT
## Result -0.42

## Task Short answer please: PBM binding z-score, PXR homodimer (NR concentration 270 nM), entry CCTACTGGGCCAAGGTCATAGATCAGTCAAAGCA
## Result 0.536

---

test system: THRa homodimer (NR concentration 90 nM); experiment: PBM binding z-score (relative to random genomic background probes); higher = stronger binding; sequences stand for … in GC…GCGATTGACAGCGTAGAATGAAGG
measurement-type: PBM binding z-score
Respond with the number and no other words.

Known PBM binding z-score results, listed for orientation:
# chain, PBM binding z-score
records = [
    ("CGAACTAGGTCACCAGGACAGCGAAGAGGTTGGA", 1.62),
    ("ATCGAAAGGTCGAAGGAGAGTATACCCACCCGAA", -0.242),
    ("AGCTCTAGGTAAAAGTTCAGTGAATCCCGAGGAT", 0.029),
    ("ATATGTAGGTTACATCCGGGTCATTCTGGCTATG", 2.37),
    ("CTATGTAGTTTAAGGGGGTCATTCAGTTTGAAAG", 2.91),
]

# context switch: different sequence, same PBM binding z-score
## Task Test system THRa homodimer (NR concentration 90 nM); read-out PBM binding z-score; what value for ATATGTAGGTTAGGGTCATTCCGAAAGTAGGGAA ?
## Result 3.01

---

# PBM binding z-score per entry
test system: VDR homodimer (NR concentration 270 nM); assay: PBM binding z-score (relative to random genomic background probes); higher = stronger binding; sequences stand for … in GC…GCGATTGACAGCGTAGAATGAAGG
Reply briefly: the number, and no unit.

Some entries whose results are on file:
# chain, PBM binding z-score
data = [
    ("ACTCGGGGGACAAAGGTCAGAGCTACGCCAGTGA", 1.81),
    ("TCGAGTAGGTTACGGGGGCATCCAGGGATGAAGA", 2.47),
    ("CCTCCAAGGTCATAGGAGGTCAGTGAAGACAGAT", 4.12),
]

## Task Which PBM binding z-score reading was recorded for the sequence GCTGCTAGGTCATGTTGGTCAGCTAACGGGTACG ?
## Result 1.44

## Task Tell me the measured PBM binding z-score of CTCGAAAGGTCGTGCTTAGGTGAGTATACCAAAC , please.
## Result 1.05

## Task Sample CCGACTGGGCCATTCAGAGGTCATTGATCATATG — what was its PBM binding z-score?
## Result 3.2

## Task Reported PBM binding z-score for CGTCGAAGGTCAATGCTAGGTCAGTGAAAGCATT : what is it?
## Result 1.91

## Task Any idea what PBM binding z-score was measured for CCGAGTAGGTAACGAGGGGGCATTCAGTGCGAAT ?
## Result 3.01
